- System: full length SGK1 (Homo sapiens)
- Construct: 125 μM full length SGK1 (Life Technologies Part #PR7358A); purchased Life Technologies PR7358A
- Sequence (O00141 whole entry): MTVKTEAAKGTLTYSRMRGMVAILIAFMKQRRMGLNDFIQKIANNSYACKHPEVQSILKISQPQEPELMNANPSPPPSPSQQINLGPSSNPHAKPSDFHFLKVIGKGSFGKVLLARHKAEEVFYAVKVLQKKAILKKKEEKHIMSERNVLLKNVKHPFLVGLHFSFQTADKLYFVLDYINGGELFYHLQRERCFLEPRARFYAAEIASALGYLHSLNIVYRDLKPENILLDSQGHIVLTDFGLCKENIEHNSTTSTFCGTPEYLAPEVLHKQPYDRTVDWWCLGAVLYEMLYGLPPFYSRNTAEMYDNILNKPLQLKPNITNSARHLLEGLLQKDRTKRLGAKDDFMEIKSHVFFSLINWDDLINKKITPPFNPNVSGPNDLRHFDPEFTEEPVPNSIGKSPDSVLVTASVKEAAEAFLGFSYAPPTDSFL
- Test Name: SGK1 inhibition Assay A (Caliper LabChip electrophoretic separation of fluorescent peptide substrate and phosphorylated product)
- Assay type: biochemical
- Protocol Conditions: Assay A; 20 μM ATP, 40 min incubation; read-out: SGK1 IC50
Counter-ions that a name gives are not always drawn.
Can you tell me pIC50 for the items I'm about to list?
Note: pIC50 values are expressed as the negative base-10 logarithm of concentration in M.

So what does the record say about pIC50 for CS(=O)(=O)c1ccc(-c2cc(N3CCC[C@@H](NC(=O)c4cccc(C5CC5)c4)C3)c3c(N)ncnn23)cc1 [Example 82] ? 7.82

So what does the record say about pIC50 for CC(=O)N1CC=C(c2cc(N3CCC[C@@H](NC(=O)c4ccn(C)n4)C3)c3c(N)ncnn23)C1 [Example 738] ? 6.94

So what does the record say about pIC50 for Cc1csc(C(=O)N[C@@H]2CCCN(c3cc(-c4ccc(S(C)(=O)=O)cc4)n4ncnc(N)c34)C2)c1 [Example 97, TFA] ? 8.52

So what does the record say about pIC50 for CC(=O)N1CC=C(c2cc(N3CCC[C@@H](NC(=O)c4ccon4)C3)c3c(N)ncnn23)C1 [Example 879] ? 6.83

So what does the record say about pIC50 for Nc1ncnn2c(C3=CCN(CC(=O)O)C3)cc(N3CCC[C@@H](NC(=O)c4ccc(Cl)s4)C3)c12 [Example 912] ? 6.67

So what does the record say about pIC50 for CC(C)(C)OC(=O)N1CC=C(c2ccc(C(=O)N[C@@H]3CCCN(c4cc(-c5ccnc(C(F)F)c5)n5ncnc(N)c45)C3)s2)C1 [Example 546] ? 7.54

So what does the record say about pIC50 for CC(=O)N1CC=C(c2cc(N3CCC[C@@H](NC(=O)c4cccc(C5CC5)n4)C3)c3c(N)ncnn23)C1 [Example 710] ? 7.89

So what does the record say about pIC50 for CS(=O)(=O)c1ccc(-c2cc(N3CCC[C@@H](NC(=O)c4ccc(F)cc4)C3)c3c(N)ncnn23)cc1 [Example 25] ? 7.66

So what does the record say about pIC50 for Nc1ncnn2c(-c3ccnc(C(F)F)c3)cc(N3CCC[C@@H](NC(=O)c4sc(Cl)cc4OCCN4CCC(F)(F)C4)C3)c12 [Example 294] ? 8.15

So what does the record say about pIC50 for CCOC(=O)[C@H]1CCCN(c2cc(-c3ccc(S(C)(=O)=O)cc3)n3ncnc(N)c23)C1 [Example 1] ? 5.52

So what does the record say about pIC50 for Nc1ncnn2c(-c3ccc(OC(F)F)nc3)cc(N3CCC[C@@H](NC(=O)c4ccc(C(F)F)s4)C3)c12 [Example 528] ? 6.86

So what does the record say about pIC50 for NCCC(=O)N1CC=C(c2cc(N3CCC[C@@H](NC(=O)c4ccc(Cl)s4)C3)c3c(N)ncnn23)C1 [Example 883] ? 8.22

So what does the record say about pIC50 for CC(=O)N1CC=C(c2cc(N3CCC[C@@H](NC(=O)c4scnc4C)C3)c3c(N)ncnn23)C1 [Example 461] ? 7.05

So what does the record say about pIC50 for N#Cc1ccc(-c2cc(N3CCC[C@@H](NC(=O)c4cc5ccccc5o4)C3)c3c(N)ncnn23)cn1 [Example 649] ? 8.22

So what does the record say about pIC50 for C#Cc1cccc(C(=O)N[C@@H]2CCCN(c3cc(-c4ccc(S(C)(=O)=O)cc4)n4ncnc(N)c34)C2)c1 [Example 34] ? 7.62

So what does the record say about pIC50 for CC(=O)NCCOc1cc(Cl)sc1C(=O)N[C@@H]1CCCN(c2cc(C3=CCN(C(C)=O)C3)n3ncnc(N)c23)C1 [Example 328] ? 8.52

So what does the record say about pIC50 for CC(=O)N1CC=C(c2cc(N3CCC[C@@H](NC(=O)c4sc(Cl)cc4OC4CN(C(C)C)C4)C3)c3c(N)ncnn23)C1 [Example 577] ? 8.22

So what does the record say about pIC50 for CC(=O)N1CC=C(c2cc(N3CCC[C@@H](NC(=O)c4sc5ccccc5c4OCCN(C)C)C3)c3c(N)ncnn23)C1 [Example 662] ? 7.80

So what does the record say about pIC50 for Nc1ncnn2c(-c3ccc(=O)[nH]c3)cc(N3CCC[C@@H](NC(=O)c4ccc(Cl)s4)C3)c12 [Example 536] ? 8.15

So what does the record say about pIC50 for CC(=O)N1CC=C(c2cc(N3CCC[C@@H](NC(=O)c4cccc(N5CC[C@@H](O)C5)n4)C3)c3c(N)ncnn23)C1 [Example 770] ? 8.15

So what does the record say about pIC50 for CC(=O)N1CC=C(c2cc(N3CCC[C@@H](NC(=O)c4sc(Cl)cc4OC4CCN(C)CC4F)C3)c3c(N)ncnn23)C1 (stereo partly drawn) [Example 605] ? 8.52

So what does the record say about pIC50 for NC(=O)c1ccc(-c2cc(N3CCC[C@@H](NC(=O)c4ccc(C(F)F)s4)C3)c3c(N)ncnn23)cc1F [Example 497] ? 9.00

So what does the record say about pIC50 for CC(C)N1CCC(c2cc(C(F)F)sc2C(=O)N[C@@H]2CCCN(c3cc(-c4ccc(C#N)nc4)n4ncnc(N)c34)C2)CC1 [Example 397] ? 6.87

So what does the record say about pIC50 for CC(=O)N1CC=C(c2cc(N3CCC[C@@H](NC(=O)c4sc(C)nc4OCCN(C)C)C3)c3c(N)ncnn23)C1 [Example 352] ? 7.85

So what does the record say about pIC50 for CC(=O)N1CC=C(c2cc(N3CCC[C@@H](NC(=O)C4=NNC(=O)CC4)C3)c3c(N)ncnn23)C1 [Example 464] ? 6.20

So what does the record say about pIC50 for CC(=O)N1CC=C(c2cc(N3CCC[C@@H](NC(=O)c4ccc(-c5cnc(C#N)nc5)s4)C3)c3c(N)ncnn23)C1 [Example 552] ? 7.57

So what does the record say about pIC50 for N#Cc1ccc(-c2cc(N3CCC[C@@H](NC(=O)c4nc5ccccc5o4)C3)c3c(N)ncnn23)cn1 [Example 650] ? 7.27
